System: human red blood cells
Conditions: 10 mM phosphate buffer saline pH 7.4, 25 °C, 4 h, visual inspection, 0.1% Triton X-100 positive control
Ends that are not written are not given here.
Collected MHC (minimal hemolytic concentration) values appear next to each entry.

# LNALKKVFQKIRQGL [GN4] with human red blood cells: MHC (minimal hemolytic concentration) is >2000 µg/mL

# KVARFLKKFFR-NH2 [GP5] with human red blood cells: MHC (minimal hemolytic concentration) is >2000 µg/mL

# RWRWPILGRILR-NH2 [GP2] with human red blood cells: MHC (minimal hemolytic concentration) is 500 µg/mL

# LNALKKVFQKIH-NH2 [GP14] with human red blood cells: MHC (minimal hemolytic concentration) is >2000 µg/mL

# FLKAVKKLIPSLF-NH2 [GP1] with human red blood cells: MHC (minimal hemolytic concentration) is 2000 µg/mL

# AGRLQKVFKVIAK-NH2 [GN13] with human red blood cells: MHC (minimal hemolytic concentration) is >2000 µg/mL

# GIGAVLNVAKKLL-NH2 [GP4] with human red blood cells: MHC (minimal hemolytic concentration) is >2000 µg/mL

# LRKARRLLKKLRARL-NH2 [GN11] with human red blood cells: MHC (minimal hemolytic concentration) is >2000 µg/mL

# ARKFRRLVKKLR-NH2 [GP11] with human red blood cells: MHC (minimal hemolytic concentration) is >2000 µg/mL
